Give measured log10 of hepatocyte CLint at 0.5 µM for each item. Keep answers brief.
# assay remarks: Intrinsic clearance in human cryopreserved hepatocytes assessed per 10^6 cells at 0.5 uM measured upto 60 mins by LCMS analysis
# Format: ADME, cell-based, Hepatocyte
# condition notes: read-out: CLH
Values below are the log10 of the recorded hepatocyte CLint at 0.5 µM, with µL/min/1e6 cells as the unit.

Lab note: C=CC(=O)N1CCN(c2nc(=O)n(-c3ccccc3C(C)C)c3nc(-c4ccccc4O)c(Cl)cc23)[C@@H](C)C1 gave log10 of hepatocyte CLint at 0.5 µM of 1.91

Input C=CC(=O)N1CCN(c2nc(=O)n(-c3ccccc3C(C)C)c3cc(-c4c(C)ccc5[nH]ncc45)c(Cl)cc23)CC1 . Output log10 of hepatocyte CLint at 0.5 µM: 2.08

Noted for C=CC(=O)N1CCN(c2nc(=O)n(-c3ccccc3C(C)C)c3cc(-c4ccccc4C(F)(F)F)c(Cl)cc23)[C@@H](C)C1 : its log10 of hepatocyte CLint at 0.5 µM reads 2.17

Record C=CC(=O)N1CCN(c2nc(=O)n(-c3c(C(C)C)ccnc3C)c3nc(-c4c(O)cccc4F)c(Cl)cc23)[C@@H](C)C1 . Reported log10 of hepatocyte CLint at 0.5 µM: 0.70

Entry C=CC(=O)N1CCN(c2nc(=O)n(-c3c(C)ccnc3C(C)C)c3nc(-c4c(O)cccc4F)c(F)cc23)[C@@H](C)C1 — recorded log10 of hepatocyte CLint at 0.5 µM = 0.95

// log10 of hepatocyte CLint at 0.5 µM lookup, compound = C=CC(=O)N1CCN(c2nc(=O)n(-c3ccccc3C(C)C)c3nc(-c4ccccc4F)c(Cl)cc23)[C@@H](C)C1 , result: 2.13

Reported log10 of hepatocyte CLint at 0.5 µM ( C=CC(=O)N1CCN(c2nc(=O)n(-c3c(C)ccnc3C(C)C)c3nc(-c4c(O)cccc4F)c(Cl)cc23)[C@@H](C)C1 ) = 1.04

The compound listed as C=CC(=O)N1CCN(c2nc(=O)n(-c3ccccc3C(C)C)c3nc(-c4c(O)cccc4F)c(Cl)cc23)CC1 shows log10 of hepatocyte CLint at 0.5 µM equal to 1.51

Given item C=CC(=O)N1CCN(c2nc(=O)n(-c3ccccc3C(C)C)c3nc(-c4c(O)cccc4F)c(Cl)cc23)[C@@H](C)C1 (stereo in doubt; (R)-18) , the value recorded as its log10 of hepatocyte CLint at 0.5 µM is 1.58

The recorded log10 of hepatocyte CLint at 0.5 µM for C=CC(=O)N1CCN(c2nc(=O)n(-c3c(C)ncnc3C(C)C)c3nc(-c4c(O)cccc4F)c(Cl)cc23)[C@@H](C)C1 is 0.70

Documented log10 of hepatocyte CLint at 0.5 µM of C=CC(=O)N1CCN(c2nc(=O)n(-c3ccccc3C(C)C)c3cc(-c4c(O)cccc4F)c(Cl)cc23)[C@@H](C)C1 : 2.05

// sample C=CC(=O)N1CCN(c2nc(=O)n(-c3c(C(C)C)ccnc3C)c3nc(-c4c(O)cccc4F)c(F)cc23)[C@@H](C)C1 , its log10 of hepatocyte CLint at 0.5 µM was 0.95

// recorded log10 of hepatocyte CLint at 0.5 µM for C=CC(=O)N1CCN(c2nc(=O)n(-c3ccccc3C(C)C)c3cc(-c4ccccc4Cl)c(Cl)cc23)[C@@H](C)C1 : 2.50

###

# assay remarks: Solubility of compound in FaSSIF incubated for 48 to 72 hrs under shaking conditions by LCMS analysis
# Assay type: physicochemical
Decide using solubility thermodynamic: a value greater than or equal to 200 µM is yes (1), a smaller one is no (0).

Query: Evaluate C=CC(=O)N1CCN(c2nc(=O)n(-c3c(C)ccnc3C(C)C)c3nc(-c4c(O)cccc4F)c(Cl)cc23)[C@@H](C)C1 : solubility thermodynamic at minimum 200 µM?
Response: yes (1)

Query: Does the molecule C=CC(=O)N1CCN(c2nc(=O)n(-c3ccccc3C(C)C)c3nc(-c4ccccc4Cl)c(Cl)cc23)[C@@H](C)C1 have recorded solubility thermodynamic that is 200 µM or more?
Response: no (0)

Query: // inclusive: solubility thermodynamic at least 200 µM? input: C=CC(=O)N1CCN(c2nc(=O)n(-c3c(C)cccc3C(C)C)c3nc(-c4c(O)cccc4F)c(F)cc23)[C@@H](C)C1
Response: no (0)

Query: Check the entry C=CC(=O)N1CCN(c2nc(=O)n(-c3c(C)ncnc3C(C)C)c3nc(-c4c(O)cccc4F)c(F)cc23)[C@@H](C)C1 : does solubility thermodynamic equal or exceed 200 µM?
Response: yes (1)

Query: Form field: solubility thermodynamic at least 200 µM? Entry: C=CC(=O)N1CCN(c2nc(=O)n(-c3ccccc3C(C)C)c3cc(-c4ccccc4F)c(Cl)cc23)CC1
Response: yes (1)

Query: solubility thermodynamic >= 200 µM for C=CC(=O)N1CCN(c2nc(=O)n(-c3ccccc3C(C)C)c3cc(-c4ccccc4C(F)(F)F)c(Cl)cc23)[C@@H](C)C1 ?
Response: yes (1)

###

Field: solubility thermodynamic. Provide a value for each of the compounds that follow.
# assay remarks: Solubility of compound in 0.01N HCl at pH 2 incubated for 48 to 72 hrs under shaking conditions by LCMS analysis
# Assay type: physicochemical
State the answer as a number, implicitly in µM.

# solubility thermodynamic (compound: C=CC(=O)N1CCN(c2nc(=O)n(-c3ccccc3C(C)C)c3nc(-c4c(O)cccc4F)c(Cl)cc23)CC1 ) is 14

The reported value for C=CC(=O)N1CCN(c2nc(=O)n(-c3c(C)ncnc3C(C)C)c3nc(-c4c(O)cccc4F)c(Cl)cc23)[C@@H](C)C1 in terms of solubility thermodynamic is 421

Entry C=CC(=O)N1CCN(c2nc(=O)n(-c3c(C)ncnc3C(C)C)c3nc(-c4c(O)cccc4F)c(F)cc23)[C@@H](C)C1 , solubility thermodynamic reported as 500

Sample C=CC(=O)N1CCN(c2nc(=O)n(-c3c(C)ccnc3C(C)C)c3nc(-c4c(O)cccc4F)c(Cl)cc23)[C@@H](C)C1 ; solubility thermodynamic observed: 500

###

# assay remarks: Oral bioavailability in Sprague-Dawley rat at 10 mg/kg
# Assay type: ADME, organism-based
# condition notes: in vivo
parameter measured: bioavailability (%)
# output: bare number, implied unit %

C=CC(=O)N1CCN(c2nc(=O)n(-c3c(C)ccnc3C(C)C)c3nc(-c4c(O)cccc4F)c(F)cc23)[C@@H](C)C1 yielded bioavailability of 2.8

###

# assay remarks: Oral bioavailability in BALB/c mouse at 10 mg/kg
# Type: ADME, organism-based
# condition notes: in vivo
Exercise: state measured bioavailability for each of the molecules provided.
Field format: number, assumed %, no unit text.

Input C=CC(=O)N1CCN(c2nc(=O)n(-c3scnc3C(C)C)c3nc(-c4c(O)cccc4F)c(Cl)cc23)[C@@H](C)C1 . Output bioavailability: 22

Lab book: bioavailability of C=CC(=O)N1CCN(c2nc(=O)n(-c3ccccc3C(C)C)c3nc(-c4c(O)cccc4F)c(Cl)cc23)CC1 noted as 1.3

Reported bioavailability of C=CC(=O)N1CCN(c2nc(=O)n(-c3ccccc3C(C)C)c3nc(-c4ccccc4Cl)c(Cl)cc23)[C@@H](C)C1 : 12

bioavailability in this record for C=CC(=O)N1CCN(c2nc(=O)n(-c3c(C(C)C)ccnc3C)c3nc(-c4c(O)cccc4F)c(F)cc23)[C@@H](C)C1 : 15

Entry C=CC(=O)N1CCN(c2nc(=O)n(-c3ccccc3C(C)C)c3nc(-c4ccccc4F)c(Cl)cc23)[C@@H](C)C1 — recorded bioavailability = 9

What the record says about C=CC(=O)N1CCN(c2nc(=O)n(-c3c(C(C)C)ncnc3C(C)C)c3nc(-c4c(O)cccc4F)c(Cl)cc23)[C@@H](C)C1 : bioavailability is 13

bioavailability reading for C=CC(=O)N1CCN(c2nc(=O)n(-c3ccccc3C(C)C)c3nc(-c4ccccc4O)c(Cl)cc23)[C@@H](C)C1 : 10

// bioavailability value for C=CC(=O)N1CCN(c2nc(=O)n(-c3c(C4CC4)ncnc3C3CC3)c3nc(-c4c(O)cccc4F)c(Cl)cc23)[C@@H](C)C1 : 7

So for C=CC(=O)N1CCN(c2nc(=O)n(-c3c(CC)cccc3CC)c3nc(-c4c(O)cccc4F)c(Cl)cc23)[C@@H](C)C1 , the logged bioavailability turned out to be 8

For reference, reported bioavailability for C=CC(=O)N1CCN(c2nc(=O)n(-c3ccccc3C(C)C)c3nc(-c4c(O)cccc4F)c(Cl)cc23)[C@@H](C)C1 (stereo in doubt; (R)-18) stands at 33

Lab note: measured bioavailability of C=CC(=O)N1CCN(c2nc(=O)n(-c3c(C)ncnc3C(C)C)c3nc(-c4c(O)cccc4F)c(F)cc23)[C@@H](C)C1 was 10

Notebook: C=CC(=O)N1CCN(c2nc(=O)n(-c3ccccc3C(C)C)c3cc(-c4ccccc4F)c(Cl)cc23)[C@@H](C)C1 , bioavailability read as 12
